# Study target: T1, Alba1 F60A (Sulfolobus solfataricus, UniProt P60849 1-97, F60A)
# T1 sequence: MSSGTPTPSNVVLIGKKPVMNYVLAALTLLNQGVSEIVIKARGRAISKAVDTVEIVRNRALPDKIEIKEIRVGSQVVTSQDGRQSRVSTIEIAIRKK
# Test name: EMSA
pKd: −log10 of the molar value.
Measured parameter: pKd

| Binder | Result number |
| --- | --- |
| 39 bp duplex (dsDNA) DNA 1: CCTCGGTGCTAAGTTGATGCTGGTACTCGGAGTATCCCG DNA 2: CGGGATACTCCGAGTACCAGCATCAACTTAGCACCGAGG | 6.28 |

Data origin: paper PMC2841500
